The origin of these recorded values is paper PMC12431657.

system: HCoV-OC43; design: species or system RD; HTS, protection from HCoV-OC43 induced cell death, luminescent cell viability (CellCounting-Lite 2.0), inhibition rate; details: 24 h, 10 µM; inhibitor
The whole screen tested about 3,300 compounds, of which about 60 (2%) showed an effect of 50% or more. The list comes from a sample in which strong results are over-represented; it also holds close analogues and randomly drawn compounds.
Entries and their measured OC43 Inhibition rate follow.
experimental.endpoint: OC43 Inhibition rate (%)

INSERT INTO measurements (compound, number) VALUES
  ('COc1cc2ccc(=O)oc2c2ccoc12', 0.1),
  ('C[C@@H]1CC[C@@]2(OC1)O[C@H]1C[C@H]3[C@@H]4CC=C5C[C@@H](O[C@@H]6O[C@H](CO)[C@@H](O[C@@H]7O[C@@H](C)[C@H](O[C@@H]8O[C@@H](C)[C@H](O)[C@@H](O)[C@H]8O)[C@@H](O)[C@H]7O)[C@H](O)[C@H]6O[C@@H]6O[C@@H](C)[C@H](O)[C@@H](O)[C@H]6O)CC[C@]5(C)[C@H]4CC[C@]3(C)[C@H]1[C@@H]2C', 5.5),
  ('COc1cc([C@@H]2c3cc4c(cc3C(=O)[C@H]3COC(=O)[C@H]23)OCO4)cc(OC)c1OC', 4.4),
  ('O=C1C([C@@H]2O[C@H](CO)[C@@H](O)[C@H](O)[C@H]2O)=C(O)/C(=C(O)/C=C/c2ccc(O)cc2)C(=O)C1(O)[C@@H]1O[C@H](CO)[C@@H](O)[C@H](O)[C@H]1O (some centres unmarked) [Hydroxysafflor yellow A]', 0.2),
  ('CC1(C)OC1COc1c2occc2cc2ccc(=O)oc12 (centres unmarked)', 2.8),
  ('C[C@@H]1CC[C@@]2(NC1)O[C@H]1C[C@H]3[C@@H]4CC=C5C[C@@H](O[C@@H]6O[C@H](CO)[C@@H](O[C@@H]7O[C@@H](C)[C@H](O)[C@@H](O)[C@H]7O)[C@H](O)[C@H]6O)CC[C@]5(C)[C@H]4CC[C@]3(C)[C@H]1[C@@H]2C', 67.5);
